FYI, the data here is from patent US20180030151A1.

molecular target: recombinant human TFPI (tissue factor pathway inhibitor) (human, UniProt P10646 29-304); test: cell-based or functional assay
property: FXa assay % of FXa alone, 2.5 nM Ab, 10 nM TFPI

[[record]]
binder = "clone A67 (antibody, V domains shown) VH: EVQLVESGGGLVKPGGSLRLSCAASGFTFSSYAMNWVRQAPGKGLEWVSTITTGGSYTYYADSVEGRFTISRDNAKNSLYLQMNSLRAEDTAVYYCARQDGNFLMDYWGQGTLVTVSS VL: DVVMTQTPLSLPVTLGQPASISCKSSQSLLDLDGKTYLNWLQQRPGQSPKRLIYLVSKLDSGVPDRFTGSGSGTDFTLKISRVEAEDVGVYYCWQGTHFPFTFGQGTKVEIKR"
readout_value = "9.2%"

[[record]]
binder = "clone 1023 (antibody, V domains shown, scFv on yeast at selection; human IgG4/kappa IgG as purified) VH: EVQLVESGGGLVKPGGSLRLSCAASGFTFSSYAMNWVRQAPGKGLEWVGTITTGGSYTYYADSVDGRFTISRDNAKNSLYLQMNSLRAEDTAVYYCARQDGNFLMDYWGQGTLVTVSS VL: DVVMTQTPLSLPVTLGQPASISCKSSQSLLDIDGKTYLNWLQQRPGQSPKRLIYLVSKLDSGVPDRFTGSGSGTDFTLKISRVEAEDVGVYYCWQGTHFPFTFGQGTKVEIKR"
readout_value = "8.9%"

[[record]]
binder = "clone A25 (antibody, V domains shown) VH: EVQLVESGGGLVKPGGSLRLSCAASGFTFSSYAMNWVRQAPGKGLEWVSTITTGGSHTYYADSVEGRFTISRDNAKNSLYLQMNSLRAEDTAVYYCARQDGNFLMDYWGQGTLVTVSS VL: DVVMTQTPLSLPVTLGQPASISCKSSQSLLDRDGKTYLNWLQQRPGQSPKRLIYLVSKLDSGVPDRFTGSGSGTDFTLKISRVEAEDVGVYYCWQGTHFPFTFGQGTKVEIKR"
readout_value = "5.6%"

[[record]]
binder = "clone A63 (antibody, V domains shown) VH: EVQLVESGGGLVKPGGSLRLSCAASGFTFSSYAMNWVRQAPGKGLEWVSTITTGGSYTYYADSVQGRFTISRDNAKNSLYLQMNSLRAEDTAVYYCARQDGNFLMDYWGQGTLVTVSS VL: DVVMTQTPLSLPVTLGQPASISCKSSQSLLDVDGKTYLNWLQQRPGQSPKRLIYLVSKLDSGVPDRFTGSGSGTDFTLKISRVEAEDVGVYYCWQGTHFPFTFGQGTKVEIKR"
readout_value = "4.8%"

